Values compiled from paper PMC4278837.

Below, each entry is listed with its recorded Ki.
- Target or test system: muPA K143A (Mus musculus, UniProt P06869, K322A)
- Construct: To ensure that the uPAs purified from the conditioned media were completely in the two-chain form, they were treated with plasmin; hexa-His (C)
- Sequence (P06869 180-433 K322A): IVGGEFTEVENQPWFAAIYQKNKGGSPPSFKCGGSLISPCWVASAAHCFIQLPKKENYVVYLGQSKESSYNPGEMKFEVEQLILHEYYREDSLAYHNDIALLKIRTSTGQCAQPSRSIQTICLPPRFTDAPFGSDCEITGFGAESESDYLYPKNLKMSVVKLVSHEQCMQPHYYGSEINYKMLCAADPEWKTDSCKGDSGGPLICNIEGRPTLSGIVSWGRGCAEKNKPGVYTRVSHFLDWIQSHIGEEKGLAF
- Sequence (P06869 21-178 partner limits assumed): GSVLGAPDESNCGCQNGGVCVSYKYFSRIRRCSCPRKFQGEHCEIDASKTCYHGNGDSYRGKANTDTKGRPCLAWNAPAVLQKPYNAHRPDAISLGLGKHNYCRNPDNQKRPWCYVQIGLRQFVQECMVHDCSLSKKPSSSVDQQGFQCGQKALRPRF
- Assay text: Ki for inhibition of muPA-K143A, chromogenic substrate
- Details: means ± S.D.; read-out: K i for inhibition of muPA-K143A
Bridge positions count the residues as written; N and C are the ends. Square brackets hold non-standard residues; d marks the D form. Peptide text beside a SMILES is read from it. Ala(1-amidino-4-piperidyl) = N=C(N)N1CCC(C[C@H](N)C(=O)O)CC1
The figure you give is taken to be in nM; do not add the unit.

Solved cases (2 shown):
CC(=O)N[C@H]1CSSC[C@@H](C(N)=O)NC(=O)[C@H](C)NC(=O)[C@H](CC(C)C)NC(=O)[C@H](Cc2ccc(O)cc2)NC(=O)[C@H](CC2CCN(C(=N)N)CC2)NC(=O)[C@H](CO)NC(=O)[C@H](Cc2ccc(O)cc2)NC(=O)[C@H](C)NC(=O)[C@@H]2CCCN2C1=O [Mupain-1-16 D9A] (Ac-CPAYS[Ala(1-amidino-4-piperidyl)]YLAC-NH2; disulfide 1-10) :: 100
CC(=O)N[C@H]1CSSC[C@@H](C(N)=O)NC(=O)[C@H](C)NC(=O)[C@H](CC(C)C)NC(=O)[C@H](Cc2ccc(O)cc2)NC(=O)[C@H](CCCNC(=N)N)NC(=O)[C@H](CO)NC(=O)[C@H](Cc2ccc(O)cc2)NC(=O)[C@H](C)NC(=O)[C@@H]2CCCN2C1=O [Mupain-1 D9A, CPAYSRYLAC] (Ac-CPAYSRYLAC-NH2; disulfide 1-10) :: 4340

Consider the record given below.
Entry CC(=O)N[C@H]1CSSC[C@@H](C(N)=O)NC(=O)[C@H](CC(=O)O)NC(=O)[C@H](CC(C)C)NC(=O)[C@H](Cc2ccc(O)cc2)NC(=O)[C@H](CC2CCN(C(=N)N)CC2)NC(=O)[C@H](CO)NC(=O)[C@H](Cc2ccc(O)cc2)NC(=O)[C@H](C)NC(=O)[C@@H]2CCCN2C1=O [Mupain-1-16] (Ac-CPAYS[Ala(1-amidino-4-piperidyl)]YLDC-NH2; disulfide 1-10) : Ki on muPA K143A (Mus musculus, UniProt P06869, K322A) = 130
